# key: entry, value: inhibition
System: Epidermal growth factor receptor (Homo sapiens), P00533 [L858R]
Sequence (P00533 whole entry L858R): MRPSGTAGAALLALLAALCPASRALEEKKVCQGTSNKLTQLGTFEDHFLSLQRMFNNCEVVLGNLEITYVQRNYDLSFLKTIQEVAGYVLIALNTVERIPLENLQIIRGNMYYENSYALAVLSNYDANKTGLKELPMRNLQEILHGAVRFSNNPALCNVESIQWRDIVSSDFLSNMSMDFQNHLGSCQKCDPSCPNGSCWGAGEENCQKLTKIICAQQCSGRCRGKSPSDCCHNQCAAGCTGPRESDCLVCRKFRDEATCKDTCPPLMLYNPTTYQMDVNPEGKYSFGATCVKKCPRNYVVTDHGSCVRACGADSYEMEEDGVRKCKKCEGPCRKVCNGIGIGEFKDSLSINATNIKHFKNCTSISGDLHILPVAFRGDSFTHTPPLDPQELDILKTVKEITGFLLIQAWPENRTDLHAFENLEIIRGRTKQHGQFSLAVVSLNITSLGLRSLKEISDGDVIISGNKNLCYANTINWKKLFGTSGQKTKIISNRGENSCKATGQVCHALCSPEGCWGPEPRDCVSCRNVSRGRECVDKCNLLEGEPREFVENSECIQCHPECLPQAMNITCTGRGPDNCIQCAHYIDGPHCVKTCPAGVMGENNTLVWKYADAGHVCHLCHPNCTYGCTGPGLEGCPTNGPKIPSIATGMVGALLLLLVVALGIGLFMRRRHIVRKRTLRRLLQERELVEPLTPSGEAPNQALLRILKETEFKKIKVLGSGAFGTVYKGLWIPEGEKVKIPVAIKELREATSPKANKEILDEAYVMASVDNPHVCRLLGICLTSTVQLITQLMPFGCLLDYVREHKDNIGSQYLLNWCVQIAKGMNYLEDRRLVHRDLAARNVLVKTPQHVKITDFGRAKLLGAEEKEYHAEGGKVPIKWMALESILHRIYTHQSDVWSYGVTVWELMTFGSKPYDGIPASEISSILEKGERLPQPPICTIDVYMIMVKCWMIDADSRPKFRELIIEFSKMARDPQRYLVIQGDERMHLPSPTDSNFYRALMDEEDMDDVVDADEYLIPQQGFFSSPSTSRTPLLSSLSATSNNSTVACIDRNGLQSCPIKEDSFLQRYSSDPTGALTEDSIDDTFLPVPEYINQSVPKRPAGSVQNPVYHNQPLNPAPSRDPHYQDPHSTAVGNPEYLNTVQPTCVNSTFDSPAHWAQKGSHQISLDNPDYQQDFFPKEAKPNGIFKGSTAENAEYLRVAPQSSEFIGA
conditionSummary: at 0.1 µM
endpointName: inhibition

1) Cc1ccc2c(c1)/C(=N/Nc1ccc(S(N)(=O)=O)cc1)C(=O)N2 : -1.56%
2) CCOc1nccc2c1nc(-c1nonc1N)n2CC : 4.22%
3) C[C@@H](Oc1cc(-n2cnc3ccc(OC[C@@H](O)CO)cc32)sc1C(N)=O)c1ccccc1Cl : -2.48%
4) c1ccc(Nc2ncc(-c3ccccc3)o2)cc1 : 4.87%
5) NS(=O)(=O)c1ccc(-c2cc3ccncc3cc2OCc2ccccc2)cc1 : 5.04%
6) NS(=O)(=O)c1ccc(N/N=C2\C(=O)Nc3ccc(Cl)cc32)cc1 : 2.02%
7) Cc1cc(-c2ccccn2)cc(C)c1/C=C/c1cncc(-c2nn[nH]n2)c1 : 2.87%
8) O=S(=O)(CCOCc1ccc(-c2ccc3ncnc(Nc4ccc(OCc5cccc(F)c5)c(Cl)c4)c3c2)o1)c1ccccc1 : 25.1%
9) O=C(Nc1ccc(Oc2ccc3[nH]c(NC(=O)c4ccco4)nc3c2)cc1)Nc1cc(C(F)(F)F)ccc1F : 0.69%
10) COc1cc(Nc2nccc(-c3cnn4ncccc34)n2)cc(OC)c1 : 2.1%
11) CS(=O)(=O)CCNCc1nc(-c2ccc3ncnc(Nc4ccc(OCc5cccc(C(F)(F)F)c5)cc4)c3c2)cs1 : 8.86%
12) COc1ccc(-c2nn3ncccc3c2-c2ccnc(Nc3cccc(C(F)(F)F)c3)n2)cc1 : 4.1%
13) Cc1ccc(Nc2ccnc(Nc3cccc(C(N)=O)c3)n2)cc1O : 5.83%
14) NC(=O)c1cccc(Nc2nccc(Nc3cccc(F)c3)n2)c1 : 0.01%
15) Nc1nccc(-c2c(-c3ccc(F)cc3)ncn2CCCN2CCOCC2)n1 : 5.87%
16) CC(C)c1ccc2c(c1)NC(=O)/C2=N/Nc1ccc(S(N)(=O)=O)cc1 : -0.18%
17) OCc1ccc(-c2nc(-c3ccccn3)c(-c3ccc4c(c3)OCO4)[nH]2)cc1 : 3.45%
18) COc1cccc(-n2ncc3c(N/N=C/c4ccc(C)cc4)ncnc32)c1 : 2.45%
19) COc1cc2ncnc(Nc3ccc4c(cnn4Cc4ccccc4)c3)c2cc1OC : 72.5%
20) NS(=O)(=O)c1cccc(Nc2cc(-c3ccc(F)cc3)n[nH]2)c1 : 1.69%
21) CCCN1CCCC(c2ccc(Nc3nc(Nc4cc(F)ccc4C(N)=O)c4cc[nH]c4n3)c(OC)c2)C1 (configuration not stated) : 9.57%
22) COc1cc(/C=N/Nc2ncnc3c2cnn3C(C)C)ccc1O : 3.23%

---

assayedSystem: Mitogen-activated protein kinase kinase kinase kinase 4 (Homo sapiens) (UniProt O95819)
Sequence (O95819 2-1239 limits assumed): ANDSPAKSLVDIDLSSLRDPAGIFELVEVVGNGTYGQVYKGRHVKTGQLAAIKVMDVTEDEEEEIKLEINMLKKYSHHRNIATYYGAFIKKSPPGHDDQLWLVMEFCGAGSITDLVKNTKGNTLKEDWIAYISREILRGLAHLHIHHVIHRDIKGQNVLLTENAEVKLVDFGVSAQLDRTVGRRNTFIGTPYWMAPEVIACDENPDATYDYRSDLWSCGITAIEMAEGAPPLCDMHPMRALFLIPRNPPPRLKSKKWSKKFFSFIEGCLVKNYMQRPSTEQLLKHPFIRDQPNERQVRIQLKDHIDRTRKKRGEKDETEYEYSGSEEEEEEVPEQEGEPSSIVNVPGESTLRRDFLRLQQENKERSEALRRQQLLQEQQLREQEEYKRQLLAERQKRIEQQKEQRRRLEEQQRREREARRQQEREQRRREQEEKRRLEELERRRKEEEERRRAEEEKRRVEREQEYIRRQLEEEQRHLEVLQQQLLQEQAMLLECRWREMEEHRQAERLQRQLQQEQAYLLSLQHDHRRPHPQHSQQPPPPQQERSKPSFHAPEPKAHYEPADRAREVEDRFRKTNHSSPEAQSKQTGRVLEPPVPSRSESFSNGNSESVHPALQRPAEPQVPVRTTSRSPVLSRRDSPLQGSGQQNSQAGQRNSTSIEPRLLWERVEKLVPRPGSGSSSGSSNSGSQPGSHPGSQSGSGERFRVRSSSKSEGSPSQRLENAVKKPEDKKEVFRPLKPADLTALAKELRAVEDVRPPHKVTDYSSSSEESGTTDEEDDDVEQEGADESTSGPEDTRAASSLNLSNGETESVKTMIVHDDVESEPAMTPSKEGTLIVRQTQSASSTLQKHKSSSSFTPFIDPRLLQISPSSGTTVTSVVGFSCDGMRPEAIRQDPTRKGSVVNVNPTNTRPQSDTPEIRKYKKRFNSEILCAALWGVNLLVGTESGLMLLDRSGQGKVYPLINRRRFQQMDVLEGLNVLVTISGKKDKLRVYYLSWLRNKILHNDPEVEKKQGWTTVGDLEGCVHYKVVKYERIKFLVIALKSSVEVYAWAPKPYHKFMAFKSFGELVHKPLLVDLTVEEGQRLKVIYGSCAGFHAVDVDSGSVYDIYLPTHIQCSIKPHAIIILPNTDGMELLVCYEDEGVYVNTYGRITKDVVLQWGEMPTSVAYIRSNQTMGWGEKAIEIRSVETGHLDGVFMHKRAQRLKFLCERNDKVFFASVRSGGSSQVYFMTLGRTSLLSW
conditionSummary: at 0.1 µM
Description: GSK_PKIS: MAP4K4 mean inhibition at 0.1 uM [Nanosyn]
inhibition below 6% gives condition not met; inhibition at or above it gives condition met.

1. Nc1nccc(C#Cc2cncnc2Nc2ccc(OCc3cccc(F)c3)c(Cl)c2)n1 : condition met
2. COc1ccc2ncnc(Nc3ccc(OCc4ccccc4)cc3)c2c1 : condition not met
3. NS(=O)(=O)c1ccc(NC=C2C(=O)Nc3ccc4ncsc4c32)cc1 : condition met
4. CS(=O)(=O)Nc1cccc(-c2ccc3c(NC(=O)C4CC4)n[nH]c3c2)c1 : condition not met
5. COc1cc2ncnc(Nc3ccc(C)c(O)c3)c2cc1OC : condition met
6. CS(=O)(=O)CCNCc1nc(-c2ccc3ncnc(Nc4ccc(OCc5cccc(C(F)(F)F)c5)cc4)c3c2)cs1 : condition not met
7. O=C(Nc1ccc(Oc2ccc3[nH]c(NC(=O)c4ccco4)nc3c2)cc1)Nc1cc(C(F)(F)F)ccc1F : condition not met
8. CN1CCN(C(=O)c2ccc(NC(=O)Nc3ccc(N(C)c4ccnc(Nc5ccc(CS(C)(=O)=O)cc5)n4)cc3)cc2)CC1 : condition met
9. CCn1c(-c2nonc2N)nc2ccc(F)cc21 : condition not met
10. Cc1ccc(NC(=O)CC2CC2)cc1-c1ccc(C(=O)NCC2CC2)cc1 : condition not met
11. NS(=O)(=O)c1ccc(N/N=C2\C(=O)Nc3ccc(Cl)cc32)cc1 : condition met

Cited source: ChEMBL document CHEMBL1961873
